// values below are Ki; system is Carbonic anhydrase 9 (Homo sapiens)
Parameter Measured: Ki (nM)

| Compound | Target Desc | Number |
| --- | --- | --- |
| COC(=O)[C@H](Cc1ccccc1)NC(=O)Nc1ccc(S(N)(=O)=O)cc1 | Carbonic anhydrase 9 (Homo sapiens) | 126 |
| COC(=O)CNC(=O)Nc1cccc(S(N)(=O)=O)c1 | Carbonic anhydrase 9 (Homo sapiens) | 825 |
| COC(=O)CC(NC(=O)Nc1cccc(S(N)(=O)=O)c1)C(=O)OC (configuration not stated) | Carbonic anhydrase 9 (Homo sapiens) | 860 |
| CCC(C)NC(=O)Nc1cccc(S(N)(=O)=O)c1 (configuration not stated) | Carbonic anhydrase 9 (Homo sapiens) | 2120 |
| NS(=O)(=O)c1cccc(NC(=O)NCCc2ccccc2)c1 | Carbonic anhydrase 9 (Homo sapiens) | 1330 |
| NS(=O)(=O)c1ccc(NC(=O)NCC(=O)NCC(=O)O)cc1 | Carbonic anhydrase 9 (Homo sapiens) | 1570 |
| CN(Cc1ccccc1)C(=O)Nc1cccc(S(N)(=O)=O)c1 | Carbonic anhydrase 9 (Homo sapiens) | 1440 |
| CCC(C)NC(=O)Nc1ccc(S(N)(=O)=O)cc1 (configuration not stated) | Carbonic anhydrase 9 (Homo sapiens) | 507 |
| NS(=O)(=O)c1cccc(NC(=O)Nc2ccccc2)c1 | Carbonic anhydrase 9 (Homo sapiens) | 1800 |
| NS(=O)(=O)c1cccc(NC(=O)Nc2cccc(C(F)(F)F)c2)c1 | Carbonic anhydrase 9 (Homo sapiens) | 1600 |
| CCCN(CCC)C(=O)Nc1cccc(S(N)(=O)=O)c1 | Carbonic anhydrase 9 (Homo sapiens) | 2190 |
| COC(=O)CCCNC(=O)Nc1cccc(S(N)(=O)=O)c1 | Carbonic anhydrase 9 (Homo sapiens) | 746 |
| CN(CCc1ccccc1)C(=O)Nc1cccc(S(N)(=O)=O)c1 | Carbonic anhydrase 9 (Homo sapiens) | 1180 |
| CC(C)N(C(=O)Nc1cccc(S(N)(=O)=O)c1)C(C)C | Carbonic anhydrase 9 (Homo sapiens) | 2090 |
| CCCCCCN(CCCCCC)C(=O)Nc1cccc(S(N)(=O)=O)c1 | Carbonic anhydrase 9 (Homo sapiens) | 2110 |
| COC(=O)C(CCSC)NC(=O)Nc1cccc(S(N)(=O)=O)c1 (configuration not stated) | Carbonic anhydrase 9 (Homo sapiens) | 1380 |
| COC(=O)CNC(=O)CNC(=O)Nc1cccc(S(N)(=O)=O)c1 | Carbonic anhydrase 9 (Homo sapiens) | 691 |
